FYI, the data here is from paper PMC12670160.

system: M. mycetomatis strain mm55; conditions: primary screen, metabolic activity vs growth control; 96 h, 2 µM; inhibitor
The campaign covered roughly 5,300 compounds. About 130 (2.5%) showed an effect of 50% or more. Many of the other results were omitted from the sample, so strong results are more common in it than they were.
QUANTITY: % viability (%)
Your answer should be a plain number; it is taken to be in %.

Qu. // % viability lookup, key: CCCC[C@H](NC(=O)[C@@H]1[C@@H]2[C@H](CN1C(=O)[C@@H](NC(=O)NC1(CS(=O)(=O)C(C)(C)C)CCCCC1)C(C)(C)C)C2(C)C)C(=O)C(=O)NC1CC1 [ONC0000734, narlaprevir]
Ans. 68.03

---
Qu. Item N=C(N)N=Nc1ccc(NNC(=N)S)cc1 [ONC0002980, ambazone] has what recorded % viability?
Ans. 75.31

Qu. Next entry: CO[C@H]1CC[C@H](N(c2cc(C3=CCCCC3)sc2C(=O)O)C(=O)[C@H]2CC[C@H](C)CC2)CC1 [ONC0000943, vch916]
Ans. 78.62

====

Measured % viability accompanies every entry in the list below.
tested on: M. mycetomatis strain mm55; conditions: primary screen, metabolic activity vs growth control, 96 h, 2 µM, inhibitor, Madurella mycetomatis metabolic activity at 2µM (%)
Hit rate of the full screen: of about 5,300 compounds, about 130 (2.5%) showed an effect of 50% or more. Shown is part of a subset that was picked to be rich in strong results.
Number only, in %; omit the unit.

In the examples that follow, each entry is paired with its recorded % viability.
Qu. Fill blank: measured % viability of the compound `O=C(O)CN(CCN(CC(=O)O)CC(=O)O)CCN(CC(=O)O)CC(=O)O` is ____.
Ans. 107.7

Qu. How about `CSCC[C@H](N)C(=O)O` ?
Ans. 102.8

Qu. Try `O=C(NCc1cccc(O)c1)Nc1nc(-c2ccncc2)cs1` next.
Ans. 81.94

Qu. # iterate: `COc1ccc(-c2cnc3c(-c4cccc5ncccc45)cnn3c2)cc1`
Ans. 84.04

Qu. Consider next the compound CCCCCCCCCCCCOS(=O)(=O)O [ONC0004120, dodecylsulfate] in the same way.
Ans. 112

Lab note: next compound to report on.
Qu. Entry under review: `O=C1OC2(c3cc(I)c(O)c(I)c3Oc3c2cc(I)c(O)c3I)c2c(Cl)c(Cl)c(Cl)c(Cl)c21` . Reported % viability?
Ans. 60.55

====

tested on: M. mycetomatis strain mm55; details: primary screen, metabolic activity vs growth control; 96 h, 2 µM; inhibitor
Structures can show the parent of a compound that is named as a salt. About 130 (2.5%) of roughly 5,300 compounds showed an effect of 50% or more. The sample holds strong results, similar compounds and a random draw of the others, so the mix is not that of the screen.
QUANTITY: % viability (%)
# value in %; strip the unit string

Here are 8 compounds together with their reported answers.
Qu. Requested read-out: % viability. Entry: CCN(CC)c1ccc(C(=C2C=CC(=[N+](CC)CC)C=C2)c2ccccc2)cc1 [ONC0002765, brilliant green]
Ans. 123.8

Qu. Now give it for O[C@H]([C@H](O)[C@@H]1CO1)[C@H]1CO1 [ONC0001201, val083] too.
Ans. 107

Qu. Here is the next compound: Clc1ccccc1C(c1ccccc1)(c1ccccc1)n1ccnc1 [Clotrimazole]
Ans. 2.944

Qu. Then Clc1ccc(C(Cn2ccnc2)OCc2ccsc2Cl)c(Cl)c1 (stereo not drawn) [Tioconazole] ?
Ans. 3.335

Qu. // repeat for CNC(=O)c1ccc2cc([C@]3(O)CCn4cncc43)ccc2c1 [ONC0004670, tak700 orteronel] and report
Ans. 115.9

Qu. Can you check CC1(C)Oc2ccc(C#N)cc2[C@H](N(Cc2ncc[nH]2)c2ccc(Cl)cc2)[C@H]1O [ONC0001872, bms191095] next?
Ans. 47.09

Qu. C[C@H]1OC(O)[C@H](O)[C@H](O)[C@H]1O (stereo partly drawn) [ONC0004779, l rhamnose monohydrate] , same question.
Ans. 103.9

Qu. Further, for CCCCC(=O)O[C@H]1CC[C@H]2[C@@H]3CCc4cc(O)ccc4[C@H]3CC[C@]12C [ONC0000727, estradiol valerate] ?
Ans. 49.76

Continuing:
Qu. Form field: reported % viability of Nc1ncnc2c1c(-c1cccc(OCc3ccccc3)c1)cn2C1CC(CN2CCCC2)C1 (stereo in doubt) [ONC0000263, nvpadw742]
Ans. 57.9

Qu. Try the compound Clc1ccc(C(Cn2ccnc2)OCc2ccc(Sc3ccccc3)cc2)c(Cl)c1 (stereo not drawn) [ONC0004926, fenticonazole nitrate]
Ans. 131.8

Qu. Now consider O=C(O[C@@H]1C[C@@H]2C[C@@H]3C[C@H](C1)N2CC3=O)c1c[nH]c2ccccc12 [ONC0005492, dolasetron] and answer again.
Ans. 77.8

Qu. Now consider C=CCOC(Cn1ccnc1)c1ccc(Cl)cc1Cl (stereo not drawn) [ONC0005416, enilconazole sulfate] .
Ans. 2.508

Qu. Now try Clc1ccc(COC(Cn2ccnc2)c2ccc(Cl)cc2Cl)cc1 (stereo not drawn) [ONC0000666, econazole nitrate] .
Ans. 102.4

Qu. Then what about the compound N#Cc1ccc(Cn2cncc2CN2CCN(c3cccc(Cl)c3)C(=O)C2)cc1 [ONC0000972, l778123 hydrochloride] ?
Ans. 78.78

Qu. Proceed to N[C@H](Cc1ccccc1)C(=O)O [ONC0002457, dphenylalanine]
Ans. 101.3

Qu. Param item: CCCCCCc1ccc(O)cc1O [ONC0000355, hexylresorcinol]
Ans. 72.69

Qu. Lookup CN(C)c1ccc(C(=C2C=CC(=[N+](C)C)C=C2)c2ccc(N(C)C)cc2)cc1 [ONC0000415, gentian violet]
Ans. 35.99

Qu. Same question for CCOC(=O)N1CSCC1C(=O)O (stereo not drawn) [ONC0002766, 3ethyl thiazolidine34dicarboxylate] please.
Ans. 97.19

Qu. Now try CCCCCCCCc1ccc(CCC(N)(CO)CO)cc1 [ONC0005159, fingolimod fty720 hcl] .
Ans. 130.1

====

tested on: M. mycetomatis strain mm55; settings: primary screen, metabolic activity vs growth control; 96 h, 2 µM; inhibitor
The whole screen tested about 5,300 compounds, of which about 130 (2.5%) showed an effect of 50% or more. Shown is part of a subset that was picked to be rich in strong results.
Listing of entries alongside the reported % viability.
// return numeric value only (unit: %, not printed)

The examples below pair each entry with its known result.
Qu. % viability lookup needed for CC[C@@H]1C(=O)N(C)c2cnc(Nc3ccc(C(=O)NC4CCN(C)CC4)cc3OC)nc2N1C1CCCC1 [ONC0004589, bi 2536] , thanks.
Ans. 63.71

Qu. Record: CCC(O)(CC(N)=O)c1ccccc1 (stereo not shown) [ONC0003599, 3hydroxy3phenylpentanamide]
Ans. 105.2

Qu. Likewise for Nc1ncn([C@H]2C[C@H](O)[C@@H](CO)O2)c(=O)n1 [ONC0003115, decitabine] ?
Ans. 79.17

Qu. Next up: CCOC(=O)Nc1nc2ccccc2[nH]1 [ONC0004223, lobendazole]
Ans. 137.9

Qu. And then CC[C@@]1(O)C(=O)OCc2c1cc1n(c2=O)Cc2cc3c(N)cccc3nc2-1 [ONC0005467, 9aminocamptothecin] , what is it?
Ans. 102.4

Qu. Now give it for CO[C@H]1/C=C/O[C@@]2(C)Oc3c(C)c(O)c4c(O)c(c(/C=N/N5CCN(C6CCCC6)CC5)c(O)c4c3C2=O)NC(=O)/C(C)=C\C=C\[C@H](C)[C@H](O)[C@@H](C)[C@@H](O)[C@@H](C)[C@H](OC(C)=O)[C@@H]1C [ONC0002002, rifapentine] too.
Ans. 77.39

---
Qu. Which % viability value is on record for COC1/C=C/OC2(C)Oc3c(C)c(O)c4c(O)c(c(/C=N/N=C/N5CCCCC5)c(O)c4c3C2=O)NC(=O)/C(C)=C\C=C\C(C)C(O)C(C)C(O)C(C)C(OC(C)=O)C1C (stereo not shown) [ONC0003798, fce22250] ?
Ans. 33.52

Qu. Further, for O=c1[nH]c(=O)n([C@H]2C[C@H](O)[C@@H](CO)O2)cc1Br [ONC0001774, 5brdu] ?
Ans. 105.2

Qu. Now the same for C[C@@H]1CC2C3CCC4=CC(=O)C=C[C@]4(C)[C@@]3(F)[C@@H](O)C[C@]2(C)[C@@]1(O)C(=O)CO (stereo partly shown) [ONC0000416, dexamethasone]
Ans. 62.67

Qu. And CC(C)(C)NC[C@H](O)COc1cccc2c1CCCC2=O [ONC0002946, levobunolol] ?
Ans. 70.13

Qu. Please give the result for NCCCCCCCCCCNS(=O)(=O)c1cccc2c(Cl)cccc12 [ONC0002708, a7] too.
Ans. 47.48
